Tested on: iBMDM (immortalised mouse bone-marrow-derived macrophages), LPS-stimulated
assay-overview: mitochondrial superoxide (MitoSOX fluorescence) fold increase over unstimulated control; higher = more LPS-induced mitochondrial ROS (less inhibition)
condition-description: inhibitor concentration: 500 nM; LPS: 100 ng/ml; time after LPS: 1 h
# mitochondrial superoxide values compiled below
// no unit string in output, number only

{"columns": ["compound", "tgt", "mitochondrial superoxide"],
 "data": [
  ["Cc1cc(F)c(Nc2ncnc3cc(OCc4ccccc4)ccc23)cc1O", "iBMDM (immortalised mouse bone-marrow-derived macrophages), LPS-stimulated", 1.17],
  ["COc1c(C)c(C(=O)c2ccc(N)c(C(=O)O)c2)n2ccccc12", "iBMDM (immortalised mouse bone-marrow-derived macrophages), LPS-stimulated", 1.19],
  ["O=c1cc(-c2cccc3c2Sc2ccccc2S3)oc(N2CCOCC2)c1", "iBMDM (immortalised mouse bone-marrow-derived macrophages), LPS-stimulated", 1.39]
]}

Fill in: mitochondrial superoxide of CCC[C@H](NC(=O)/C(C#N)=C/c1cccc(Br)n1)c1ccccc1 [Degrasyn (WP1130)] is ___
1.18

---

System: iBMDM (immortalised mouse bone-marrow-derived macrophages), LPS-stimulated
assay-overview: mitochondrial superoxide (MitoSOX fluorescence) fold increase over unstimulated control; higher = more LPS-induced mitochondrial ROS (less inhibition)
condition-description: inhibitor concentration: 500 nM; LPS: 100 ng/ml; time after LPS: 2 h
Counter-ions that a name gives are not always drawn.
value-type: mitochondrial superoxide
// no unit string in output, number only

{"columns": ["molecule", "mitochondrial superoxide"],
 "data": [
  ["Cc1cc(Nc2cc(N3CCN(C)CC3)nc(Sc3ccc(NC(=O)C4CC4)cc3)n2)n[nH]1 [VX-680 (Tozasertib, MK-0457)]", 1.64],
  ["NC(=O)Nc1sc(-c2ccc(F)cc2)cc1C(N)=O", 1.2]
]}

Fill in: mitochondrial superoxide of Cc1cc2c(F)c(Oc3ncnn4cc(OC[C@@H](C)OC(=O)[C@H](C)N)c(C)c34)ccc2[nH]1 is ___
1.46

Fill in: mitochondrial superoxide of Cc1ccc(Nc2nccc(N(C)c3ccc4c(C)n(C)nc4c3)n2)cc1S(N)(=O)=O is ___
1.56

Fill in: mitochondrial superoxide of CC1(C)CNc2cc(NC(=O)c3cccnc3NCc3ccncc3)ccc21 [Motesanib Diphosphate (AMG-706)] is ___
1.63

Fill in: mitochondrial superoxide of COc1cc(Nc2ncc3c(n2)-c2ccc(Cl)cc2C(c2c(F)cccc2OC)=NC3)ccc1C(=O)O [Alisertib (MLN8237)] is ___
1.41

Fill in: mitochondrial superoxide of Cc1ccccc1CN1C2=NCCN2C(=O)C2=C1CCN(Cc1ccccc1)C2 is ___
1.27

Fill in: mitochondrial superoxide of CN1CC[C@H](c2c(O)cc(O)c3c(=O)cc(-c4ccccc4Cl)oc23)[C@H](O)C1 [Flavopiridol HCl] is ___
1.48

---

Tested on: iBMDM (immortalised mouse bone-marrow-derived macrophages), LPS-stimulated
assay-overview: mitochondrial superoxide (MitoSOX fluorescence) fold increase over unstimulated control; higher = more LPS-induced mitochondrial ROS (less inhibition)
condition-description: inhibitor concentration: 500 nM; LPS: 100 ng/ml; time after LPS: 2 h
# mitochondrial superoxide values compiled below
// no unit string in output, number only

Sample answers from the record:
{"columns": ["compound", "mitochondrial superoxide"],
 "data": [
  ["C[C@H](NC(=O)/C(C#N)=C/c1cccc(Br)n1)c1ccccc1", 1.37],
  ["COc1cc(Nc2c(C#N)cnc3cc(OCCCN4CCN(C)CC4)c(OC)cc23)c(Cl)cc1Cl [Bosutinib (SKI-606)]", 1.66],
  ["C[C@@H](Oc1cc(-c2cnn(C3CCNCC3)c2)cnc1N)c1c(Cl)ccc(F)c1Cl", 1.5],
  ["CO[C@H]1C[C@@H]2CC[C@@H](C)[C@@](O)(O2)C(=O)C(=O)N2CCCC[C@H]2C(=O)O[C@H]([C@H](C)C[C@@H]2CC[C@@H](O)[C@H](OC)C2)CC(=O)[C@H](C)/C=C(\\C)[C@@H](O)[C@@H](OC)C(=O)[C@H](C)C[C@H](C)/C=C/C=C/C=C/1C [Rapamycin (Sirolimus)]", 1.7],
  ["NC1(C(=O)N[C@@H](CCO)c2ccc(Cl)cc2)CCN(c2ncnc3[nH]ccc23)CC1", 1.54],
  ["Nc1nc(Nc2ccc(S(N)(=O)=O)cc2)nn1C(=O)c1c(F)cccc1F", 1.13]
]}

# ---- query compound ----
Fill in: mitochondrial superoxide of CC(C)(C)c1cc(/C=C(\C#N)C(N)=S)cc(C(C)(C)C)c1O [Tyrphostin AG 879] is ___
1.42

---

# mitochondrial superoxide values compiled below
System: iBMDM (immortalised mouse bone-marrow-derived macrophages), LPS-stimulated
assay-overview: mitochondrial superoxide (MitoSOX fluorescence) fold increase over unstimulated control; higher = more LPS-induced mitochondrial ROS (less inhibition)
condition-description: inhibitor concentration: 500 nM; LPS: 100 ng/ml; time after LPS: 1 h
// no unit string in output, number only

Sample answers from the record:
{"columns": ["smiles-entry", "tgt", "mitochondrial superoxide"],
 "data": [
  ["CCc1cc2c(cc1N1CCC(N3CCOCC3)CC1)C(C)(C)c1[nH]c3cc(C#N)ccc3c1C2=O", "iBMDM (immortalised mouse bone-marrow-derived macrophages), LPS-stimulated", 1.26],
  ["O=C(Nc1cccc(Nc2ncc(Br)c(NCCc3cnc[nH]3)n2)c1)N1CCCC1", "iBMDM (immortalised mouse bone-marrow-derived macrophages), LPS-stimulated", 1.13],
  ["O=C(Nc1c[nH]nc1-c1nc2ccc(CN3CCOCC3)cc2[nH]1)NC1CC1", "iBMDM (immortalised mouse bone-marrow-derived macrophages), LPS-stimulated", 1.34],
  ["CC(C)(O)CC(=O)NCCn1ccc2ncnc(Nc3ccc(Oc4cccc(C(F)(F)F)c4)c(Cl)c3)c21", "iBMDM (immortalised mouse bone-marrow-derived macrophages), LPS-stimulated", 1.14],
  ["C[C@@H](Oc1cc(-n2cnc3ccc(CN4CCN(C)CC4)cc32)sc1C(N)=O)c1ccccc1C(F)(F)F", "iBMDM (immortalised mouse bone-marrow-derived macrophages), LPS-stimulated", 1.12],
  ["CNC(=O)c1cc(Oc2ccc(NC(=O)Nc3ccc(Cl)c(C(F)(F)F)c3)c(F)c2)ccn1", "iBMDM (immortalised mouse bone-marrow-derived macrophages), LPS-stimulated", 1.5]
]}

Fill in: mitochondrial superoxide of CCCS(=O)(=O)Nc1ccc(F)c(C(=O)c2c[nH]c3ncc(-c4ccc(Cl)cc4)cc23)c1F is ___
1.16

Fill in: mitochondrial superoxide of C=CC(=O)Nc1cc2c(Nc3ccc(F)c(Cl)c3)ncnc2cc1OCCCN1CCOCC1 is ___
1.59

---

# mitochondrial superoxide values compiled below
System: iBMDM (immortalised mouse bone-marrow-derived macrophages), LPS-stimulated
assay-overview: mitochondrial superoxide (MitoSOX fluorescence) fold increase over unstimulated control; higher = more LPS-induced mitochondrial ROS (less inhibition)
condition-description: inhibitor concentration: 500 nM; LPS: 100 ng/ml; time after LPS: 2 h
// no unit string in output, number only

Fill in: mitochondrial superoxide of Nc1ccc(-c2ccc3ncc4ccc(=O)n(-c5cccc(C(F)(F)F)c5)c4c3c2)cn1 [Torin 2] is ___
1.17

Fill in: mitochondrial superoxide of Cn1cc(-c2ccc3nnc(C(F)(F)c4ccc5ncccc5c4)n3n2)cn1 is ___
1.44

Fill in: mitochondrial superoxide of CC(C)c1cnn2c(NCc3ccccc3)cc(NCCCCCCN)nc12 is ___
1.25

Fill in: mitochondrial superoxide of CC(C)NC[C@@H](C(=O)N1CCN(c2ncnc3c2[C@H](C)C[C@H]3O)CC1)c1ccc(Cl)cc1 is ___
1.49

Fill in: mitochondrial superoxide of O=c1cc(N2CCOCC2)oc2c1ccc1ccccc12 is ___
1.11

Fill in: mitochondrial superoxide of Cc1cc(C(=O)NOCCO)c(Nc2ccc(I)cc2F)n(C)c1=O is ___
1.25

Fill in: mitochondrial superoxide of CC(=O)Nc1cccc(-n2c(=O)n(C3CC3)c(=O)c3c(Nc4ccc(I)cc4F)n(C)c(=O)c(C)c32)c1 is ___
1.44

Fill in: mitochondrial superoxide of Nc1nc(N)c2nc(-c3cccc(O)c3)c(-c3cccc(O)c3)nc2n1 is ___
1.23

Fill in: mitochondrial superoxide of CN(C[C@@H]1COCCO1)S(=O)(=O)Nc1ccc2ccc3ncc(-c4cnn(C)c4)cc3c(=O)c2c1 is ___
1.51

---

Tested on: iBMDM (immortalised mouse bone-marrow-derived macrophages), LPS-stimulated
assay-overview: mitochondrial superoxide (MitoSOX fluorescence) fold increase over unstimulated control; higher = more LPS-induced mitochondrial ROS (less inhibition)
condition-description: inhibitor concentration: 500 nM; LPS: 100 ng/ml; time after LPS: 4 h
# mitochondrial superoxide values compiled below
// no unit string in output, number only

Sample answers from the record:
{"columns": ["compound", "mitochondrial superoxide"],
 "data": [
  ["NC1(c2ccc(-c3nc4ccn5c(=O)[nH]nc5c4cc3-c3ccccc3)cc2)CCC1", 1.47],
  ["O=C1NC(=O)C(=Cc2ccc(-c3ccc(F)cc3)o2)S1 (stereo in doubt)", 1.65],
  ["O=C(Nc1ccc(-c2ccnc(Nc3ccc(N4CCOCC4)cc3)n2)cc1)C1CCCN1 (centres undefined)", 1.3],
  ["O=C(NOCC1CC1)c1ccc(F)c(F)c1Nc1ccc(I)cc1Cl", 1.9],
  ["Cc1cc(C(C)Nc2ccccc2)c2nc(N3CCOCC3)cc(=O)n2c1 (centres undefined)", 1.74]
]}

// fetch iBMDM (immortalised mouse bone-marrow-derived macrophages), LPS-stimulated mitochondrial superoxide for O=C(Nc1c[nH]nc1-c1nc2ccc(CN3CCOCC3)cc2[nH]1)NC1CC1
1.51

// fetch iBMDM (immortalised mouse bone-marrow-derived macrophages), LPS-stimulated mitochondrial superoxide for CCNC(=O)Nc1ccc(-c2nc3c(c(N4CCOC[C@@H]4C)n2)CCN(C2COC2)C3)cc1
1.68

// fetch iBMDM (immortalised mouse bone-marrow-derived macrophages), LPS-stimulated mitochondrial superoxide for O=C1NC(=O)/C(=C/c2ccc(-c3ccc(F)cc3O)o2)S1
1.78

// fetch iBMDM (immortalised mouse bone-marrow-derived macrophages), LPS-stimulated mitochondrial superoxide for C=CC(=O)Nc1ccc2ncnc(Nc3ccc(OCc4cccc(F)c4)c(Cl)c3)c2c1
1.42

// fetch iBMDM (immortalised mouse bone-marrow-derived macrophages), LPS-stimulated mitochondrial superoxide for N#CC(=Cc1ccc(O)c(O)c1)C(=O)NCc1ccccc1
1.44

// fetch iBMDM (immortalised mouse bone-marrow-derived macrophages), LPS-stimulated mitochondrial superoxide for CNC(=O)c1cc(Oc2ccc(NC(=O)Nc3ccc(Cl)c(C(F)(F)F)c3)cc2)ccn1 [Sorafenib]
1.66

// fetch iBMDM (immortalised mouse bone-marrow-derived macrophages), LPS-stimulated mitochondrial superoxide for COc1c(C)c(C(=O)c2ccc(N)c(C(=O)O)c2)n2ccccc12
1.32

// fetch iBMDM (immortalised mouse bone-marrow-derived macrophages), LPS-stimulated mitochondrial superoxide for Cc1cc2c(F)c(Oc3ncnn4cc(OC[C@@H](C)OC(=O)[C@H](C)N)c(C)c34)ccc2[nH]1
1.53
